This collection of values is drawn from PubChem BioAssay (NCATS).

biological target: Cytochrome P450 3A4 (Homo sapiens) (UniProt P08684); test: qHTS Assay for Inhibitors and Substrates of Cytochrome P450 3A4 (AID 884); conditions: recombinant CYP3A4, Luciferin-PPXE luminescence; series mostly up to 57.1 µM; note: nearly all actives have a fitted effect of over 50% in size
Sequence (P08684 whole entry, looked up): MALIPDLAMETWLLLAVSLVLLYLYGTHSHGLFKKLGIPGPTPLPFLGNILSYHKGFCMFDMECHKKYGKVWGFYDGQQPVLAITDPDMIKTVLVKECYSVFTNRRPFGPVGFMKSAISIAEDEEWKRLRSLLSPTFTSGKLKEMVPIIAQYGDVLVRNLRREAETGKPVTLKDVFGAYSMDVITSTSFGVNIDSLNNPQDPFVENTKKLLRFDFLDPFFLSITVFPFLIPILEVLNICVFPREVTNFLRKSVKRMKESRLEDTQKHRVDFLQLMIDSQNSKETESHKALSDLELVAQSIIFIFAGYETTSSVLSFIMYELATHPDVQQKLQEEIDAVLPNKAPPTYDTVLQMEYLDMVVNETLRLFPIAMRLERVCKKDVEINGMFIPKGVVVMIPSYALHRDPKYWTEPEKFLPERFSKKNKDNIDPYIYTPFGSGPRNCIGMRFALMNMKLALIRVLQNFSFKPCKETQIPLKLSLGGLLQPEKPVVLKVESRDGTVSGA
Inconclusive results are not listed. The source made the active and inactive calls. Calls come from the whole dose curve; as a rule, active = well fitted inhibition curve with a large enough effect; inconclusive = small, poorly fitted or top-dose-only effect; inactive = no such curve, though single readings can be large or run the other way.
One label from this list, please: yes = active, no = inactive

Solved cases (8 shown):
CC(C)(C)C(=O)[C@H]([C@@H](c1ccccc1)N1CCOCC1)N1CCOCC1: yes
Cc1ccc(C)c(C(=N)c2ccccc2Cc2ccccc2)c1: yes
CC(C)N1CCN(c2ccncc2S(=O)(=O)N2CCCCC2)CC1: yes
CN(C)C[C@H]1CCC2=C(C1=O)C(c1ccc(Cl)c(Cl)c1)C1=C(CC[C@H](CN(C)C)C1=O)O2: yes
COC(=O)[C@](C)(N)Cc1ccc(O)cc1: no
Nc1nc(SC/C=C\c2ccccc2)c2[nH]cnc2n1: yes
COc1ccc2c(c1)Cc1cc(N=[N+]([O-])c3ccc4c(c3)Cc3cc(OC)ccc3-4)ccc1-2: yes
CCOC(=O)C1OC1c1ccccc1 (stereo not drawn): no

Dear colleague, could you share the recorded outcome for COc1cc(Cl)c(CC(=O)c2c[nH]c3ccccc23)cc1OC when you have a moment? yes

Field: outcome | Entry: O[C@@H](C1=C/C(=C\c2ccncc2)c2ccccc21)c1ccncc1 yes

Please share the test call associated with CN1CCc2cc(Cl)c(O)cc2[C@H](c2ccccc2)C1 . no

Just curious, what result did CC(C)OCC1CO1 (stereo not drawn) get here? no

Fill in: this test's call for NNC(=O)CCc1ccc2ccc3ccccc3c2c1 is ___ yes

Per the records of this test, what outcome belongs to Clc1nc2ccccc2nc1Cl ? no

====

Test: MultiTox-Fluor Cytotoxicity Assay - LYMP1-003 - Live Cells (AID 962);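 note: cells exposed to compound for 16 hours at 37 °C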
Details: LYMP1-003 lymphoblastoid cells, MultiTox-Fluor live-cell protease fluorescence; series mostly up to 92.2 µM
From the text: NIH Chemical Genomics Center [NCGC] NIH Molecular Libraries Screening Centers Network [MLSCN] National Institutes of Environmental Health Sciences [NIEHS] National Toxicology Program [NTP] We have developed a 1536-well cell-based assay for quantitative high throughput screening (qHTS) against a number of cell lines to determine in vitro cytotoxicity of small molecules. […] 8. Detection; live-cell fluorescence (Ex/Em=405/510); EnVision plate reader […]
The source made the active and inactive calls. Calls follow the shape of the dose curve; as a rule, active = well fitted cell-killing curve with a large enough effect; inconclusive = small, poorly fitted or top-dose-only effect; inactive = flat fitted curve, though single readings scatter.
Respond only with the outcome that fits, drawn from label 1 (active), label 0 (inactive)

NC(=O)Nc1nc2ccccc2[nH]1: label 0

Hi, do you know how Cc1c(C(=O)O)c(O)cc2c1C(=O)c1c(O)c([C@H]3O[C@H](CO)[C@@H](O)[C@H](O)[C@H]3O)c(O)c(O)c1C2=O came out in this test? label 0

Test call for this molecule, please: Cc1c(N)cccc1Cl label 0

I would be grateful if you could indicate the recorded call for C=CC(=O)OCCCCCCOC(=O)C=C . label 1

Please share the test call associated with Nc1cc([N+](=O)[O-])ccc1O . label 0

====

Examples of molecules with documented activity change, negative = inhibition follow.
experiment: AP1 Signaling Pathway (AID 357); conditions: ME-180 AP-1-bla reporter, EGF-induced, beta-lactamase ratio, 5 h; at 7.69 µM (top of the series) unless noted;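 note: ME-180 reporter cells stimulated with EGF at its EC50 level; % is set by controls: 0 for no effect and ±100 for the full control effect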
Results filed as inconclusive are left out.
State just the number; it will be interpreted in %.

Please review the following examples before continuing.
Cc1nc(-c2ccccc2)c(Cc2ccccc2O)c(=O)[nH]1: -9.11
c1ccc2c(c1)c1ccccc1n2Cn1c2ccccc2c2ccccc21: 10.8

Would you kindly share the measured activity change, negative = inhibition for COc1c2c(c3c(c1CCC(=O)O)OC(C)(C)C=C3)OC(C)(C)C=C2 ? -1.7

Please report the recorded activity change, negative = inhibition for Clc1ccc(Cl)c(SCCCN2CCNCC2)c1 . 3.23

Consider the molecule CC(=O)c1ccc(O)c(CN(C2CCCCC2)C2CCCCC2)c1O and give its measured activity change, negative = inhibition. -2.68

Look at this molecule and give its reported activity change, negative = inhibition. [Cu].[NH-][C@H](CC(=O)O)C(=O)O.[NH-][C@H](CC(=O)O)C(=O)O 5.72

What value of activity change, negative = inhibition has been reported for the following molecule? [O-][n+]1c(CN2CCCCC2)nc2cccc3c2c1-c1ccccc1-3 -8.04

====

assay: NFAT Signaling Pathway (AID 444); details: Jurkat NFAT-bla M1, carbachol, beta-lactamase ratio, 5 h; at 7.69 µM (top of the series) unless noted;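 note: carbachol stimulus at about its EC50 of 1 µM final; % is set by controls: 0 for no effect and ±100 for the full control effect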
Records with an inconclusive call do not appear. Active and inactive are the calls of the source. Calls follow the shape of the dose curve; as a rule, active = well fitted curve in either direction with a large enough effect (not every such curve was filed as active); inconclusive = small, poorly fitted or top-dose-only effect, or another doubt; inactive = flat fitted curve, though single readings scatter.
The reply should be one of these categories: label 1 = active, label 0 = inactive

O=C(Nc1ccc2ncccc2c1)Nc1ccc2ncccc2c1: label 0

How was C[C@H]1[C@H](O)[C@@H](C)C=CC=CC=CC=CC=CC=CC=C[C@H](O[C@@H]2O[C@@H](C)[C@H](O)[C@@H](N)[C@@H]2O)C[C@@H]2O[C@](O)(C[C@@H](O)C[C@@H](O)[C@@H](O)CC[C@@H](O)C[C@@H](O)CC(=O)O[C@H]1C)C[C@H](O)[C@H]2C(=O)O classified in this test? label 0

Short answer needed: outcome of this test for C[C@H]1[C@H](C)CC[C@]2(C(=O)O)CC[C@]3(C)C(=CC[C@@H]4[C@]5(C)C[C@H](O)[C@@H](O)[C@@](C)(CO)[C@@H]5[C@H](O)C[C@@]43C)[C@H]12 ? label 0

====

Overview of recorded activity change, negative = inhibition for various compounds
Assay: AP1 Signaling Pathway (AID 357);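 note: ME-180 reporter cells stimulated with EGF at its EC50 level; % is set by controls: 0 for no effect and ±100 for the full control effect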
Conditions: ME-180 AP-1-bla reporter, EGF-induced, beta-lactamase ratio, 5 h; at 7.69 µM (top of the series) unless noted
Procedure: NCGC Assay Overview: Activator protein-1 (AP-1), a transcription factor, plays an important role in tumor genesis by regulating genes involved in cell proliferation, differentiation, apoptosis, and angiogenesis. AP-1 activity is induced by a complex network of signaling pathways that involves extracellular signals, such as growth factors. […] Library compounds were measured for their ability to modulate positively or negatively the action of EC50 EGF on reporter gene activity. […]
Results filed as inconclusive are left out. Active and inactive are the calls of the source. Calls follow the shape of the dose curve; as a rule, active = well fitted curve in either direction with a large enough effect (not every such curve was filed as active); inconclusive = small, poorly fitted or top-dose-only effect, or another doubt; inactive = flat fitted curve, though single readings scatter.

S=C(S)NCCCn1ccnc1: 7.59% (inactive)
C[C@]1(O)CC[C@H]2[C@H]3CC=C4N5CCN=C5CC[C@@]4(C)[C@H]3CC[C@@]21C: -0.00324% (inactive)
CCOc1ccccc1/C=C(\C#N)C(N)=O: 3.2% (inactive)

Fill in the blank: the reported activity change, negative = inhibition of CN(Cc1cc(Br)cc(Br)c1O)Cc1c(O)ccc2ccccc12 is ____. 3.01% (inactive)

Fill in: activity change, negative = inhibition of O=C1O[C@@H]([C@H](O)[C@H](O)[C@H](O)CO)[C@@H](O)[C@@H]1O is ___ 21.3% (inactive)

Quick one: activity change, negative = inhibition for Nc1ncnc2c1ncn2[C@H]1O[C@@H](C(=O)OCCO)[C@@H](O)[C@H]1O ? 1.75% (inactive)

Please give the measured activity change, negative = inhibition for this compound: O=C1c2ccccc2C(=O)c2c(NC3CCCCC3)ccc(Nc3ccc(S(=O)(=O)O)cc3)c21 -7.28% (inactive)

I'd like to know its activity change, negative = inhibition. The compound in question is C[C@H](Br)C(=O)c1ccc2cc(Br)c3ccccc3c2c1 -18.5% (inactive)

Find the recorded activity change, negative = inhibition belonging to c1ccc(CN2CC[C@@H](CNc3ncnc4ccccc34)C2)cc1 and report it. 3.93% (inactive)

GET /values?readout=activity change, negative = inhibition&item= CC(CCc1nc2ccccc2s1)(c1ccc(O)cc1)c1ccc(O)cc1 7.74% (inactive)

Data request, read-out activity change, negative = inhibition, for c1ccc(C(CCN2CC3CCC(CC3)C2)c2ccccc2)cc1 2.88% (inactive)

Reported activity change, negative = inhibition, compound CC1=C(C(=O)O)N2C(=O)[C@@H](NC(=O)[C@@H](N)C3=CCC=CC3)[C@@H]2SC1 : ____ 0.806% [at 38 µM] (inactive)

====

assay: AP1 Signaling Pathway (AID 357); settings: ME-180 (cervical carcinoma) AP-1-bla reporter, EGF-induced, beta-lactamase ratio, 5 h; at 7.69 µM (top of the series) unless noted;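 note: ME-180 reporter cells stimulated with EGF at its EC50 level; % is set by controls: 0 for no effect and ±100 for the full control effect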
Results filed as inconclusive are left out.
Endpoint Label: activity change, negative = inhibition (%)
Your answer should be a plain number; it is taken to be in %.

activity change, negative = inhibition lookup needed for C[N+](C)(C)CC(=O)N/N=C\c1c(O)ccc2ccccc12 , thanks. 3.17

What activity change, negative = inhibition value was documented for this compound, NCC(=O)[C@@H](O)[C@H](O)[C@H](O)CO ? -1.89

I am curious: what activity change, negative = inhibition value has been reported for C[C@H](CCC(=O)O)[C@H]1CC[C@@H]2[C@H]3CC[C@H]4C[C@H](O)CC[C@@]4(C)[C@@H]3CC[C@@]21C ? 17.2

====

target: Cytochrome P450 1A2 (Homo sapiens); assay: p450-cyp1a2 (AID 410); details: recombinant CYP1A2, luciferin-ME demethylation, luminescence; series mostly up to 11.4 µM
Results filed as inconclusive are left out. Calls of active or inactive are those of the source. Calls follow the shape of the full dose curve.
Could you please pick one outcome from this set? y for active, n for inactive

Answered cases to consult:
O=[N+]([O-])c1ccc2c(c1)Cc1cc(N=Cc3ccc4c(c3)OCO4)ccc1-2: y
O=C(O)c1cccc(CN2CCCCC2)c1: n
N[C@@H](C(=O)O)[C@H](O)C(=O)O: n
CSc1ccc(NC(=O)Nc2cc(C)ccn2)cc1: y
Cn1cnc([N+](=O)[O-])c1Sc1nc(N)nc2c1ncn2Cc1ccccc1: y

Recorded call for O=C(O)[C@H]([C@H]1NCCS1)N1C(=O)c2ccccc2C1=O ? y

How did this test come out for CC(=O)Nc1nc(NC(C)=O)c2[nH]c(CO)nc2n1 ? n

Assay result, entry Cc1cccc(CNc2nc(-c3cccnc3)nc3ccccc23)c1 — outcome? y

Could you please tell me the result logged for NC[C@H](O)C1CCCCCCC1 in this assay? n
